Biological target: Pyruvate kinase PKM (Homo sapiens)
Experiment: Activation of PKM2 assessed as ATP product formation by luminescent pyruvate kinase-luciferase coupled assay
Conditions: read-out: AC50
Sequence (P14618 whole entry): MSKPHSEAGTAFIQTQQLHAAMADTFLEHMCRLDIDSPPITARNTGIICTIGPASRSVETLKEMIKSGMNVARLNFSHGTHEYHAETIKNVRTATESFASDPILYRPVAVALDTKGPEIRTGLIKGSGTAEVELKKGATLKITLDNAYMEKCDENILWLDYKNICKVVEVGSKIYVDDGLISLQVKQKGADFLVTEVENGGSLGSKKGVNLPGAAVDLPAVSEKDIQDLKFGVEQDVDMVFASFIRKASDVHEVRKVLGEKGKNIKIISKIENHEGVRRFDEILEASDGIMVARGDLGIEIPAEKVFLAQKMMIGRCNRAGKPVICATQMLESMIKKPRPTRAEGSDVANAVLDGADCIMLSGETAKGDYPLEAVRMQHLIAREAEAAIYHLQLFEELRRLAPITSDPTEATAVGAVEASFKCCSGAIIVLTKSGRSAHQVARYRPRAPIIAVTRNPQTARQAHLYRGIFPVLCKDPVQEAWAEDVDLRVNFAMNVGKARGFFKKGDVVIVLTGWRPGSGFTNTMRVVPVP
// reported log10 of AC50 for each item listed
All values: base-10 log of AC50 in µM.

[[record]]
smi = "O=S(=O)(NC1CCN(S(=O)(=O)c2c(F)cccc2F)CC1)c1ccc2c(c1)OCCO2"
test_value = 0.95


Please find the next compound below.
Provide measured log10 of AC50 on Pyruvate kinase PKM (Homo sapiens) for `O=S(=O)(NCC1CN(S(=O)(=O)c2c(F)cccc2F)C1)c1ccc2c(c1)OCCO2` please.
0.48

* * *

// reported Activity for each item listed
Molecular target: UniProt:P14618
Experiment: Activation of PKM2 assessed as ATP product formation at 57 uM by luminescent pyruvate kinase-luciferase coupled assay relative to fructose-1,6-bis-phosphate
Sequence (P14618 2-531 limits assumed): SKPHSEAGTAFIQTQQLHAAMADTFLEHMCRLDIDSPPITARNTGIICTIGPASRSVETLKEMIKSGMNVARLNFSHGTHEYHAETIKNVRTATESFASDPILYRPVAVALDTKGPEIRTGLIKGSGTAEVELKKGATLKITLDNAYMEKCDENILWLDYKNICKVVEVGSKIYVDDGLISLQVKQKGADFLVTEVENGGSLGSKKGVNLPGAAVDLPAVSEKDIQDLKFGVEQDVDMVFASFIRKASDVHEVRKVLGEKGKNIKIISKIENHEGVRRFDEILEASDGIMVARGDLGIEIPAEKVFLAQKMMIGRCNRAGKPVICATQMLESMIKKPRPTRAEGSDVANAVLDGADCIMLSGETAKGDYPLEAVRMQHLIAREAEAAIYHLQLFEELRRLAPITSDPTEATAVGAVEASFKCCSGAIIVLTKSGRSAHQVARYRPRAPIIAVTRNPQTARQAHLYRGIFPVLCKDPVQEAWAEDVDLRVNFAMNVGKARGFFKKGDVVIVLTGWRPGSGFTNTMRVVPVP
Hi! Could you send only the number? It should be in %, unit omitted.

Record excerpt, results attached:
[[record]]
smi = "COc1cc(F)c(S(=O)(=O)N2CCN(S(=O)(=O)c3cccc(N)c3)CC2)c(F)c1"
target_under_test = "UniProt:P14618"
readout_kind = "Activity"
unit_string = "%"
test_value = 90.5

[[record]]
smi = "COc1ccc(S(=O)(=O)N2CCN(S(=O)(=O)c3ccc(OC)cc3)CC2)cc1"
target_under_test = "UniProt:P14618"
readout_kind = "Activity"
unit_string = "%"
test_value = 87.6


Please find the next molecule below.
Please give measured Activity of the following entry: `COc1cc(F)c(S(=O)(=O)N2CCCN(S(=O)(=O)c3cccc(N)c3)CC2)c(F)c1`
92.5

* * *

Molecular target: Pyruvate kinase PKM (Homo sapiens, UniProt P14618)
Assay: Activation of PKM2 assessed as ATP product formation by luminescent pyruvate kinase-luciferase coupled assay
Conditions: read-out: AC50
readout_kind: AC50 (µM)
Hi! Could you send only the number? It should be in µM, unit omitted.

Record excerpt, results attached:
[[record]]
smi = "O=S(=O)(NCC1CN(S(=O)(=O)c2ccc3c(c2)OCCO3)C1)c1c(F)cccc1F"
target_under_test = "Pyruvate kinase PKM (Homo sapiens, UniProt P14618)"
test_value = 4.47

[[record]]
smi = "C[C@H]1CN(S(=O)(=O)c2ccc3c(c2)OCCO3)CCN1S(=O)(=O)c1c(F)cccc1F"
target_under_test = "Pyruvate kinase PKM (Homo sapiens, UniProt P14618)"
test_value = 9.18

[[record]]
smi = "COc1cc(F)c(S(=O)(=O)N2CCN(S(=O)(=O)c3cccc(N)c3)CC2)c(F)c1"
target_under_test = "Pyruvate kinase PKM (Homo sapiens, UniProt P14618)"
test_value = 0.026


Provide measured AC50 on Pyruvate kinase PKM (Homo sapiens, UniProt P14618) for `C[C@@H]1CN(S(=O)(=O)c2ccc3c(c2)OCCO3)CCN1S(=O)(=O)c1c(F)cccc1F` please.
2.93

Provide measured AC50 on Pyruvate kinase PKM (Homo sapiens, UniProt P14618) for `Nc1cccc(S(=O)(=O)N2CCN(S(=O)(=O)c3c(F)cccc3F)CC2)c1` please.
0.099

* * *

// reported AC50 for each item listed
Molecular target: Pyruvate kinase PKM (Homo sapiens, UniProt P14618)
Assay: Activation of PKM2 assessed as ATP product formation by luminescent pyruvate kinase-luciferase coupled assay
Settings: read-out: AC50

[[record]]
molecule = "O=S(=O)(N[C@H]1CC[C@@H](NS(=O)(=O)c2c(F)cccc2F)CC1)c1ccc2c(c1)OCCO2"
test_value = "> 35 µM"

[[record]]
molecule = "O=S(=O)(c1ccc2c(c1)OCCO2)N1CCN(S(=O)(=O)c2cccc[n+]2[O-])CC1"
test_value = "> 10 µM"

[[record]]
molecule = "O=S(=O)(NC1CCN(S(=O)(=O)c2c(F)cccc2F)C1)c1ccc2c(c1)OCCO2 (stereo not drawn)"
test_value = "> 10 µM"


Please give measured AC50 of the following entry: `O=S(=O)(NCCNS(=O)(=O)c1c(F)cccc1F)c1ccc2c(c1)OCCO2`
> 15 µM

Please give measured AC50 of the following entry: O=S(=O)(NC1CCN(S(=O)(=O)c2ccc3c(c2)OCCO3)C1)c1c(F)cccc1F (stereo not drawn)
> 15 µM

Please give measured AC50 of the following entry: `O=S(=O)(NC1CCN(S(=O)(=O)c2ccc3c(c2)OCCO3)CC1)c1c(F)cccc1F`
3.69 µM

Please give measured AC50 of the following entry: `Nc1cccc(S(=O)(=O)N2CCN(S(=O)(=O)c3ccc4c(c3)OCCO4)CC2)c1`
0.043 µM

Please give measured AC50 of the following entry: `COc1cc(F)c(S(=O)(=O)N2CCCN(S(=O)(=O)c3cccc(N)c3)CC2)c(F)c1`
0.223 µM
